Test: yeast display, Sf9 membrane polyspecificity reagent, FACS + sequencing; frameworks hold sequencing errors
REPORTED METRIC: polyreactivity (PSR sort gate)

Look up polyreactivity (PSR sort gate) of QVQLGESRGGLVQAGGSLRLSCAASGRTFTGYAMGWYRQAPGKERELVAAITVSSGRTYYADSVKGRFTISRDNAKNTVYLQMNSLKPEDTAVYYCAKRFRSTHLWKFGGYDYWGQGTQVTVSS and report it. high polyreactivity

Answer with the recorded polyreactivity (PSR sort gate) for the sequence listed here: QVQLVESGGGLVQAGGSLRLSCAASGFTFVYYAMGWYRQAPGKERELVAAISRGGSTYYADSVKGRFTISRDNAKNTVYLQMNCLKPVDTAVYYCNAKKSGHYVSYPAYDYWGQGTQVTVSS low polyreactivity

Give the measured polyreactivity (PSR sort gate) for QVQLVESGGGLVQAGGSLRLSCAASGRIYAMGWYRQAPGKERELVAAISYSGGSTYYADSVKGRFTISRDNAKNTVYLQMNSLKPEDTAVYYCAAVIYRGYYYWGQGTQVTVSS high polyreactivity

Find the measured polyreactivity (PSR sort gate) of QVQLVESGGGLVQAGGSLRLSCAASGSTFTLYARGWYRQAPGKERELVATITGSGGSTNYADSVKGRFTISRDNAKNTVYLQMNSLKPEDTAVYYCAADYAVYSFTEFNYWGQGTQVTVSS and report it. high polyreactivity

Provide polyreactivity (PSR sort gate) value for the following sequence: QVQLVESGGGLVQAGGSLRLSCAASGRIFVRNAMGWYRQAPGKERELVAAITRTGASTYYADSVKGRFTISRDNAKNTVYLQMNSLKPEDTAVYYCAAVWGWPYWVYRYDYWGQGTQVTVSS high polyreactivity

Indicate its recorded polyreactivity (PSR sort gate); the sequence in question is QDQLVESGGGLVQAGGSLRLSCAASGSIFVENDMGWYRQAPGKERELVAVITSGGSTYYADSVKGRFTISRDNAKNTVYLQMNSLKPEDTAVYYCNKDYAAIDRYDSWGQGTQVTVSS low polyreactivity

Recall and state the measured polyreactivity (PSR sort gate) for QVQLVESAGGLVQAGGSLRLSCAASGSTFYPYAIGWYRQAPGKERELVAAISSGGSTYYADSVKGRFTISRDNAKNTVYLQMNSLKPEDTAVYYCAADFYYAYYWGQGTQVTVSS . low polyreactivity

Report polyreactivity (PSR sort gate), nothing else, for this sequence: QVQLVESGGGLVQAGGSLRLSCAASGITIKRYAMGWYRQAPGKEREFVATISQSGTSTYYADSVKGRFTISRDNAKTTVYLQMISLKPEDTAVYYCAADFIGYWYGYYSWGQGTQVTVSS low polyreactivity

Could you please provide reported polyreactivity (PSR sort gate) for QVQLVESGGGLVQAGGSLRLSCAASGIIIGLYGRGWYRQAPGKERELVAAISSSGGSTYYADSVKGRFTISRDNAKNTVYLQINSLKPEDTAVYYCARVVRSLWGGLYLYDYWGQGTQVTVSS ? Thanks! low polyreactivity

Dear colleague, please send me the reported polyreactivity (PSR sort gate) for QVQLVESGGGLVQAGGSLRLSCAASGIIFYYYDMGWYRQAPGKERELVAAISWGAGDTYYADSVKGRFTISRDNAKNTVYLQMNSLKPEDTAVYYCAAEFSRSDYQEYDYWGQGTQVTVSS when you can. low polyreactivity

In the following, a different sequence is considered.
Give me measured polyreactivity (PSR sort gate), please, for this sequence: QVQLVESGGGLVQAGGSLRLSCAASGRIFGLYALGWYRPAPGKEREFVAAIRWIGGGTYYADSVKGRFTISRDHAKNTVYLQINSLKPEDTAVDSCNVVTWYYVFRPWEYDYWGQGTQVTVSS low polyreactivity
